- Test target: Rac1 (Homo sapiens)
- Construct: His (N)
- Assay notes: Rac Activation AlphaScreen Assay (Rac1 AS)
- Assay type: biochemical
- Cond: Rac1 AS assay, dose leading to 50% disruption of complex; read-out: IC50
pIC50: −log10 of the molar value.
Each entry below lists one item and its recorded pIC50 value.

Sample answers from the record:
Per the records, this compound ( Cc1cccc(C(=O)Nc2cccc(-c3ccc4nnc(-c5ccc(C)o5)n4n3)c2)c1 ) has pIC50 equal to > 5.00

Quick note, pIC50 for CCc1ccc(CS(=O)(=O)Nc2cccc(-c3ccc4nnc(-c5cccnc5)n4n3)c2)s1 landed at > 5.00

# compound Cc1nnc2ccc(-c3ccc(NC(=O)Cc4ccco4)cc3)nn12 ; its pIC50 = < 4.00

Entry O=C(Cc1ccc(Cl)nc1)Nc1ccc(-c2ccc3nnc(-c4ccccn4)n3n2)cc1 , pIC50 reported as 4.30 to 5.00

Recorded pIC50 (compound Cc1ccc(-c2nnc3ccc(-c4cccc(NC(=O)c5cccc(Br)c5)c4)nn23)o1 ): > 5.00

---
O=S(=O)(Cc1ccc2ccccc2c1)Nc1cccc(-c2ccc3nnc(-c4cccnc4)n3n2)c1 has a reported pIC50 of > 5.00

Lab book: pIC50 of O=C(Cc1cccc(F)c1)Nc1ccc(-c2ccc3nnc(-c4cccs4)n3n2)cc1 noted as > 5.00

Entry Cc1ccc(-c2nnc3ccc(-c4cccc(NS(=O)(=O)Cc5ccc(F)cc5F)c4)nn23)o1 , pIC50 reported as > 5.00

Notebook: COc1cccc(C(=O)Nc2cccc(-c3ccc4nnc(-c5cncs5)n4n3)c2)c1 , pIC50 read as > 5.00

----------
- Test target: Rac1 (Homo sapiens)
- Construct: His (N)
- Assay notes: Rac Activation AlphaScreen Assay (Rac1 AS)
- Assay type: biochemical
- Cond: AlphaLisa assay; read-out: IC50 inhibitory concentration versus wild type Rac1
Measured metric: IC50

The value of IC50 recorded for CCn1c2ccccc2c2cc(Nc3ccnc(NCCCN4CCOCC4)n3)ccc21 when tested on Rac1 (Homo sapiens) reads ~10 µM

----------
Listed here: items and their measured IC50.
- Test target: Rac1 (Homo sapiens)
- Construct: His (N)
- Assay notes: Rac Activation AlphaScreen Assay (Rac1 AS)
- Format: biochemical
- Cond: Rac1 AS assay, dose leading to 50% disruption of complex; read-out: IC50

Measured IC50 of Cc1ccc(-c2nnc3ccc(-c4cccc(NC(=O)c5cccc(Cl)c5)c4)nn23)o1 : < 10 µM

Measured IC50, Cc1ccc(-c2nnc3ccc(-c4cccc(NC(=O)c5cccc(F)c5)c4)nn23)o1 : < 10 µM

Summary for this compound, Cc1cc(C)cc(CC(=O)Nc2ccc(-c3ccc4nnc(-c5ccncc5)n4n3)cc2)c1 : IC50 is 10 to 50 µM

Summary for this compound, Cc1ccc(-c2nnc3ccc(-c4cccc(NC(=O)c5ccc(F)c(SC(C)C)c5)c4)nn23)o1 : IC50 is < 10 µM

GET /value?item= Cc1ccc(-c2nnc3ccc(-c4cccc(NC(=O)c5ccc(F)cc5)c4)nn23)o1 &field=IC50 returns < 10 µM

Further cases:
IC50 in this record for Cn1cc(CC(=O)Nc2cccc(-c3ccc4nnc(-c5cccnc5)n4n3)c2)c2ccccc21 : < 10 µM

Lab note: measured IC50 of COc1ccc(CS(=O)(=O)Nc2cccc(-c3ccc4nnc(-c5cccnc5)n4n3)c2)cc1 was < 10 µM

Record O=S(=O)(Cc1ccc(F)cc1F)Nc1cccc(-c2ccc3nnc(-c4cccnc4)n3n2)c1 , field IC50: < 10 µM

----------
- Test target: Rac1 (Homo sapiens, UniProt P63000)
- Construct: His (N)
- Assay notes: Rac Activation AlphaScreen Assay (Rac1 AS)
- Type: biochemical
- Cond: Rac1 AS assay, dose leading to 50% disruption of complex; read-out: IC50
- Experimental: The IC50 values reported in Tables 1-6 were obtained from the Rae Activation AlphaScreen Assay (Rac1 AS) assay described in subsection 2 under the section entitled “In Vitro Assays”. […] AlphaScreen® assays were performed in 96-well microplates in a final reaction volume of 60 μL. […] Readings were performed on a Tecan M1000 pro microplate reader after 1 hour. […]
pIC50: −log10 of the molar value.
Recorded measurements of pIC50, one per entry

get_value(item= COc1cccc(CC(=O)Nc2ccc(-c3ccc4nnc(-c5cccs5)n4n3)cc2)c1 , readout=pIC50) returns 4.30 to 5.00

pIC50 for CCc1cc(C(=O)Nc2cccc(-c3ccc4nnc(-c5ccc(C)o5)n4n3)c2)ccc1F is > 5.00

Others:
Reported pIC50 for O=C(Cc1ccc2ccccc2n1)Nc1ccc(-c2ccc3nnc(-c4ccccn4)n3n2)cc1 was < 4.00

get_value(item= Cc1ccc(-c2nnc3ccc(-c4cccc(NC(=O)c5cccc(SC(C)(C)C)c5)c4)nn23)o1 , readout=pIC50) returns > 5.00

Measured pIC50, O=C(Nc1cccc(-c2ccc3nnc(-c4cncs4)n3n2)c1)c1ccc(F)cc1 : > 5.00

Query O=C(Cc1cccs1)Nc1ccc(-c2ccc3nnc(-c4cccnc4)n3n2)cc1 yields pIC50 of 4.30 to 5.00

Entry O=C(Cc1ccc(F)cc1)Nc1ccc(-c2ccc3nnc(-c4cccs4)n3n2)cc1 ; pIC50 = > 5.00

All figures here come from patent US20250235453A1.
